- System: HepG2 cells
Assay endpoint: CC50 (mM)
Reply with just the number (in mM).

Sample answers from the record:
Query block: Test system HepG2 cells; read-out CC50; what value for CC(=O)OC/C=C/c1ccccc1 [Cinnamylacetate] ?
Result block: 7.1

Query block: Which CC50 is reported with HepG2 cells for this entry: C=CC(C)(C)c1cc(/C=C/C(=O)c2ccc(O)cc2)c(OC)cc1O [Licochalcone-A] ?
Result block: 0.03

New cases:
Query block: Lookup: CC50 / HepG2 cells / O=C(O)/C=C/c1ccccc1 [Trans-cinnamic acid]
Result block: 22.4

###

- Test description: in vitro
- Test parameters: human
The following molecules are shown together with reported log10(CC50) values.
All values: log10 CC50 [mM].

Study these solved cases before continuing.
Query block: Please give the measured log10(CC50) for this molecule: CC(=O)c1ccccc1O [2′-Hydroxyacetophenone]
Result block: 0.26

Query block: Item COc1ccc(C=CC(=O)O)cc1OC has what recorded log10(CC50)?
Result block: 1.00

Query block: Name the reported log10(CC50) value associated with the molecule O=c1ccc2ccc(O)cc2o1 [7-Hydroxycoumarin]
Result block: 1.03

Query block: State the recorded log10(CC50) for this entry: C=CCc1ccc(OC)cc1
Result block: 0.90

Query block: Fill in: log10(CC50) of COc1cc(C=CC(=O)O)ccc1O [4-Hydroxy-3-methoxycinnamic acid] is ___
Result block: 1.00

Kindly consider the entry below.
Query block: I am curious: what log10(CC50) value has been reported for O=c1cc(O)c2ccccc2o1 [4-Hydroxycoumarin] ?
Result block: 1.01

###

- Test description: in vitro
- Test parameters: human
Listed here are molecules together with their documented CC50.
Quick note: give the figure in µM, leave out the unit.

// below: answered molecules
Query block: // CC50 lookup, key: O=C/C=C/c1ccccc1 [Trans-cinnamaldehyde]
Result block: 200

Query block: I have this molecule here, COc1cc(C=CC=O)ccc1O [4-Hydroxy-3-methoxy cinnamaldehyde] , and I need its recorded CC50.
Result block: 700

Next:
Query block: Please give the measured CC50 for this molecule: Oc1cc(O)c2c(c1)O[C@H](c1ccc(O)c(O)c1)[C@H](O)[C@H]2c1c(O)cc(O)c2c1O[C@H](c1ccc(O)c(O)c1)[C@@H](O)C2 [Procyanidin B1]
Result block: 656

Query block: CC50 lookup needed for O=C(O)C=Cc1ccccc1O [2-Hydroxycinnamic acid] , thanks.
Result block: 2500

Query block: I have this molecule here, OCCc1ccccc1 [2-Phenylethanol (phenethy alcohol), 2-Phenylethanol] , and I need its recorded CC50.
Result block: 24500

###

Data export: SI (CC50/IC50) values recorded with HIV/SARS-CoV S pseudovirus.

Query block: What is its SI (CC50/IC50) for HIV/SARS-CoV S pseudovirus? Entry: CCOC(=O)/C=C/c1ccccc1 [Ethylcinnamate]
Result block: 2.0

Query block: Which measured SI (CC50/IC50) belongs to Cc1ccc(C(C)C)cc1 , tested on HIV/SARS-CoV S pseudovirus?
Result block: 1

Query block: What is its SI (CC50/IC50) for HIV/SARS-CoV S pseudovirus? Entry: CC(=O)c1ccccc1O [2′-Hydroxyacetophenone]
Result block: 1

Query block: # value lookup — system HIV/SARS-CoV S pseudovirus, readout SI (CC50/IC50), item COc1ccc(C=CC(=O)O)cc1OC
Result block: 2

Read the next record carefully.
Query block: Form field - read-out: SI (CC50/IC50); system: HIV/SARS-CoV S pseudovirus; submitted item: O=C/C=C/c1ccccc1 [Trans-cinnamaldehyde]
Result block: 1

###

- Test description: in vitro
- Test parameters: human
Catalogue of CC50 readings, one per entry.
Express it in mM; write the number only.

Query block: Form field: reported CC50 of Oc1cc(O)c2c(c1)O[C@@]1(c3ccc(O)c(O)c3)Oc3cc(O)c4c(c3[C@@H]2[C@H]1O)O[C@H](c1ccc(O)c(O)c1)[C@H](O)[C@H]4c1c(O)cc(O)c2c1O[C@H](c1ccc(O)c(O)c1)[C@H](O)C2 [Cinnamtannin B1]
Result block: 0.242

Query block: Dear colleague, I am looking for the recorded CC50 of the following compound: CCOC(=O)/C=C/c1ccccc1 [Ethylcinnamate]
Result block: 14.1

Query block: Which CC50 is reported for this compound? Cc1ccc(C(C)C)cc1 [p-Cymene]
Result block: 75

###

HIV/SARS-CoV S pseudovirus: reported SI (CC50/IC50) for various compounds.
API doc: respond with a numeric literal and nothing else, no unit.

Check out these entries, answers already filled in.
Query block: SI (CC50/IC50) lookup needed for O=c1ccc2ccc(O)cc2o1 [7-Hydroxycoumarin] , thanks.
Result block: 4.3

Query block: Could you share which SI (CC50/IC50) value was measured for C=CC(C)(C)c1cc(/C=C/C(=O)c2ccc(O)cc2)c(OC)cc1O ?
Result block: 1

Query block: // query SI (CC50/IC50) value for entry O=c1cc(O)c2ccccc2o1 [4-Hydroxycoumarin]
Result block: 1

Further cases:
Query block: Fill in the blank: the reported SI (CC50/IC50) of COc1cc(C=CC(=O)O)ccc1O [4-Hydroxy-3-methoxycinnamic acid] is ____.
Result block: 2

Query block: Param item = CC(=O)OC/C=C/c1ccccc1 [Cinnamylacetate] ; retrieve measured SI (CC50/IC50).
Result block: 1

Query block: Consider the compound shown here: COc1cc(C=CC=O)ccc1O [4-Hydroxy-3-methoxy cinnamaldehyde] What is its recorded SI (CC50/IC50)?
Result block: 2.3
